Origin of the recorded values: ChEMBL document CHEMBL1961873

- assayed_system: Protein-tyrosine kinase 2-beta (Homo sapiens) (UniProt Q14289);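 also: values are the mean percent inhibition of PYK2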
- Sequence (Q14289 whole entry, looked up): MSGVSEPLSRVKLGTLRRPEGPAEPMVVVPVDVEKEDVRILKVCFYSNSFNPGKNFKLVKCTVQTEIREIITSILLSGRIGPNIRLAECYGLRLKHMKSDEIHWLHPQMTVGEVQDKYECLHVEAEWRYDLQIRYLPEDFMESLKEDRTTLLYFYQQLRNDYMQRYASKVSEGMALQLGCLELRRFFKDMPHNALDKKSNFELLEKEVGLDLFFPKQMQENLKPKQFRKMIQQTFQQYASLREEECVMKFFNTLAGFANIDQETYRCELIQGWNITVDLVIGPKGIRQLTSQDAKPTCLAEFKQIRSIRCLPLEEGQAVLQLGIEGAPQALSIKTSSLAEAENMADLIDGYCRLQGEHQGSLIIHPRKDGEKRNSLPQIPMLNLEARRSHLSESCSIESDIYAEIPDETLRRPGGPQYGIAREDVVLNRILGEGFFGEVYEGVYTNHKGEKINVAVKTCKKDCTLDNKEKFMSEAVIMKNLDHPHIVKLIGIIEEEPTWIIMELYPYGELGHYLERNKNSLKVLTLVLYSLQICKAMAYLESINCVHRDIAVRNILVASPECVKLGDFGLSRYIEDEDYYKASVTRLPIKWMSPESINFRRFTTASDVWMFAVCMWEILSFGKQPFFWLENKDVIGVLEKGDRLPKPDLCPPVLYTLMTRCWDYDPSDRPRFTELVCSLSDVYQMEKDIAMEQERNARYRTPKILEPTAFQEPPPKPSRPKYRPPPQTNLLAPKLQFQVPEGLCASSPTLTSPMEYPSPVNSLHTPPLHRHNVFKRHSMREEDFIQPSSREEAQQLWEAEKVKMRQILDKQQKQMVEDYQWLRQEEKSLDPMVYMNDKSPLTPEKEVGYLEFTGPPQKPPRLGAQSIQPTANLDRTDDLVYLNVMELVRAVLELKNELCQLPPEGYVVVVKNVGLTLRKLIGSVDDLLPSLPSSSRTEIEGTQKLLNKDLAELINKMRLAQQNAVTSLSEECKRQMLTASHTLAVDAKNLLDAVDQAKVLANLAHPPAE
- condition: at 1 µM
measured_quantity: inhibition (%)
One number for each entry, in %.

# smiles_code, units_symbol, inhibition
data = [
    ("O=C1NC(=O)C(c2ccccc2Cl)=C1Nc1cccc(O)c1", "%", 8.51),
]

Each of the following entries comes with a recorded value; kindly state inhibition for each.
1. CS(=O)(=O)CCNCc1ccc(-c2ccc3ncnc(Nc4ccc(OCc5ccccc5)c(Cl)c4)c3c2)o1
2. CCCN1CCC(Oc2cc(Nc3nc(Nc4cccc(F)c4C(N)=O)c4cc[nH]c4n3)c(OC)cc2Cl)CC1
3. CCc1cccc(NC(=O)Nc2ccc(Oc3ccc4nc(NC(=O)OC)[nH]c4c3)cc2)c1
4. CNC(=O)c1cncc(/C=C/c2c(Cl)cccc2Cl)c1
5. COc1ccc(-c2ccncc2)cc1C(N)=O

Reply:
1. 5.81
2. 92.4
3. 8.1
4. 7.83
5. 11.3
